target: 45 kDa Arg-specific proteinase (Porphyromonas gingivalis, UniProt P28784); construct: made in house; host or cells: native protein purified from sonicate of P. gingivalis W50 cells (Q-sepharose, Superose 12, Arg-sepharose 200 mM arginine eluant, Mono Q); experiment: biochemical; format: biochemical, P. gingivalis W50; details: compound 10.0 mM; incubation also contained 1.0 mM 2-mercaptoethanol
Sequence (P28784 228-719): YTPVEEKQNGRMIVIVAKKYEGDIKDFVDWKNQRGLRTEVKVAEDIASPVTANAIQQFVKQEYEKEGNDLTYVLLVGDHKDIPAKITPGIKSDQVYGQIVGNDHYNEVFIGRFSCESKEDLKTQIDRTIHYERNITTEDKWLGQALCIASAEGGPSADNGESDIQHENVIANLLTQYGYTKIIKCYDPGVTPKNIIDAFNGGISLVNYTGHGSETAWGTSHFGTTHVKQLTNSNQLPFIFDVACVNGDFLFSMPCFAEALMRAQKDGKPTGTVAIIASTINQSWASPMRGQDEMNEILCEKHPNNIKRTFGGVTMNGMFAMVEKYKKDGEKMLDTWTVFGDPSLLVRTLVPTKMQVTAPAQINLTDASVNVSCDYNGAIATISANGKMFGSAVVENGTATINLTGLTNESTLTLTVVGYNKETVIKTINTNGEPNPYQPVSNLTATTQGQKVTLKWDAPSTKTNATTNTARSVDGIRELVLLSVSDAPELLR
Entries and their Activity (%) of the 45 kDa Arg-specific proteinase
Numbers only; they are read as %.

Record `O=C(O)CN(CCN(CC(=O)O)CC(=O)O)CC(=O)O` : what is its Activity (%) of the 45 kDa Arg-specific proteinase with 45 kDa Arg-specific proteinase (Porphyromonas gingivalis, UniProt P28784)?
4

Enter reported Activity (%) of the 45 kDa Arg-specific proteinase observed with 45 kDa Arg-specific proteinase (Porphyromonas gingivalis, UniProt P28784) for O=S(=O)(F)Cc1ccccc1 [PMSF, phenylmethyl sulfonyl fluoride]
90

Form field: Activity (%) of the 45 kDa Arg-specific proteinase recorded for `O=C(O)c1cc[c]([Hg][Cl])cc1` with 45 kDa Arg-specific proteinase (Porphyromonas gingivalis, UniProt P28784) (enter value)
14

// fetch 45 kDa Arg-specific proteinase (Porphyromonas gingivalis, UniProt P28784) Activity (%) of the 45 kDa Arg-specific proteinase for `NCCc1ccc(S(=O)(=O)F)cc1`
80

Now consider a different compound.
# get_value(readout= Activity (%) of the 45 kDa Arg-specific proteinase, system= 45 kDa Arg-specific proteinase (Porphyromonas gingivalis, UniProt P28784)) for `c1cnc2c(c1)ccc1cccnc12`
100

====

molecular target: 45 kDa Arg-specific proteinase (Porphyromonas gingivalis); construct: made in house; host or cells: native protein purified from sonicate of P. gingivalis W50 cells (Q-sepharose, Superose 12, Arg-sepharose 200 mM arginine eluant, Mono Q); test: biochemical; assay type: biochemical, P. gingivalis W50
measured.endpoint: Effect on the Arg-specific 45 kDa enzyme (in words)

Please report the recorded Effect on the Arg-specific 45 kDa enzyme (in words) for O=C(O)CN(CCN(CC(=O)O)CC(=O)O)CC(=O)O [EDTA] .
inhibited

Give the measured Effect on the Arg-specific 45 kDa enzyme (in words) of CC(=O)N[C@@H](CC(C)C)C(=O)N[C@@H](CC(C)C)C(=O)N[C@H](C=O)CCCNC(=N)N [Leupeptin] .
inhibited

Form field: reported Effect on the Arg-specific 45 kDa enzyme (in words) of NCCc1ccc(S(=O)(=O)F)cc1 [AEBSF]
not inhibited

If you can, please state the reported Effect on the Arg-specific 45 kDa enzyme (in words) value of O=S(=O)(F)Cc1ccccc1 [PMSF, phenylmethyl sulfonyl fluoride] .
not inhibited

These data points were gathered from patent US6511666B1.
